target: ErbB4 on neonatal rat cardiomyocytes (rat) (UniProt Q62956); experiment: cell-based or functional assay
Sequence (Q62956 26-1308): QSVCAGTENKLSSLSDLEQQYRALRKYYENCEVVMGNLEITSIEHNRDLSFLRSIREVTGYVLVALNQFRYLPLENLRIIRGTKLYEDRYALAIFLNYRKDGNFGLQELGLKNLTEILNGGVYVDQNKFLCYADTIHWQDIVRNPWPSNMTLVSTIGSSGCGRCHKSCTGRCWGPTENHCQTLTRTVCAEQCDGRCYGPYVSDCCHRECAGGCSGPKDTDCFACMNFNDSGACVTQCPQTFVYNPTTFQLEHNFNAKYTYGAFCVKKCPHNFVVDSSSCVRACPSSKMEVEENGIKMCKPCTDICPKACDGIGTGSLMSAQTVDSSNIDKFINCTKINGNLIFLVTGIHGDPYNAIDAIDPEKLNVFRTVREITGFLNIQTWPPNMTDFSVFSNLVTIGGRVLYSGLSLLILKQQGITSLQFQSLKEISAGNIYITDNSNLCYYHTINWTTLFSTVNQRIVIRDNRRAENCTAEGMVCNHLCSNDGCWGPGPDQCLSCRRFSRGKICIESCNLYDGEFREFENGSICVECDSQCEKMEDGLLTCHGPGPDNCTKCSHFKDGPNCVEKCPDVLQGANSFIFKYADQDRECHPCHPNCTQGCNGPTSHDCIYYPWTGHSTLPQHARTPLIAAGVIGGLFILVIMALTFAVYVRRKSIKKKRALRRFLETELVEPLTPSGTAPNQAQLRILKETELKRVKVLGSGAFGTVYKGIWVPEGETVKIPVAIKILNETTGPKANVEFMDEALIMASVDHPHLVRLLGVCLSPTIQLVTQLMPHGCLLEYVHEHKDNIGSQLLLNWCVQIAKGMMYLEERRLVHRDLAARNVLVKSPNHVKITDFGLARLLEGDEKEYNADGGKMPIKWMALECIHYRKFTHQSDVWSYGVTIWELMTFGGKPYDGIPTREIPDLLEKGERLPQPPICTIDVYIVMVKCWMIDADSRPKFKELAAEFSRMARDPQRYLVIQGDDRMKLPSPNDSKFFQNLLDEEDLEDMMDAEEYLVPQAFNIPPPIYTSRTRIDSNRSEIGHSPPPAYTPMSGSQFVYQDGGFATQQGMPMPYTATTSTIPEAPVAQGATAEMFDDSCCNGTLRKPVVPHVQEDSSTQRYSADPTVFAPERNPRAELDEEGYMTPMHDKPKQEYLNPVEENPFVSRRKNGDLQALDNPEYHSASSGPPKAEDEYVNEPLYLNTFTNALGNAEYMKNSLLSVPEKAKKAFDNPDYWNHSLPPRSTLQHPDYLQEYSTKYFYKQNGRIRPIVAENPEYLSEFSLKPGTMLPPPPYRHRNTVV
Cardiomyocyte (CM) (ErbB4) Avg EC50 overview
EXPERIMENTAL ENDPOINT: Cardiomyocyte (CM) (ErbB4) Avg EC50 (pM)

>  <BINDER>
huNRG1(S177-F229)(NRGE1D) (E47T_D48S_F49L_M50L) 6xHis (ligand) SHLVKCGESHKSFCVNGGECYMVEGSSIPSRYLCKCPNEFTGDRCQTSLLASFGGGGEGGGGAGGGGHHHHHH

>  <EXPERIMENTAL ENDPOINT>
Cardiomyocyte (CM) (ErbB4) Avg EC50

>  <VAL>
330

$$$$
>  <BINDER>
huNRG1(S177-Q237)(1A12)::GG::huFcSEFL2 (Pb) (Fc fusion) SHLVKCAEKHKSFCVNGGECYVVERPSIPSRYLCKCPNEFTGDRCQKFFMASFYKAEELYQGGDKTHTCPPCPAPELLGGPSVFLFPPKPKDTLMISRTPEVTCVVVDVSHEDPEVKFNWYVDGVEVHNAKTKPCEEQYGSTYRCVSVLTVLHQDWLNGKEYKCKVSNKALPAPIEKTISKAKGQPREPQVYTLPPSREEMTKNQVSLTCLVKGFYPSDIAVEWESNGQPENNYKTTPPVLDSDGSFFLYSKLTVDKSRWQQGNVFSCSVMHEALHNHYTQKSLSLSPGK

>  <EXPERIMENTAL ENDPOINT>
Cardiomyocyte (CM) (ErbB4) Avg EC50

>  <VAL>
722

$$$$
>  <BINDER>
huNRG1(S177-Q237)(NRGE1I)::GG::huFcSEFL2 (Pb) (Fc fusion) SHLVKCGENDKSFCVNGGECFMIEGPSNPSRYLCKCPNEFTGDRCQDDFMASFYKAEELYQGGDKTHTCPPCPAPELLGGPSVFLFPPKPKDTLMISRTPEVTCVVVDVSHEDPEVKFNWYVDGVEVHNAKTKPCEEQYGSTYRCVSVLTVLHQDWLNGKEYKCKVSNKALPAPIEKTISKAKGQPREPQVYTLPPSREEMTKNQVSLTCLVKGFYPSDIAVEWESNGQPENNYKTTPPVLDSDGSFFLYSKLTVDKSRWQQGNVFSCSVMHEALHNHYTQKSLSLSPGK

>  <EXPERIMENTAL ENDPOINT>
Cardiomyocyte (CM) (ErbB4) Avg EC50

>  <VAL>
22900

$$$$
>  <BINDER>
huNRG1(S177-Q237)(1A1)::GG::huFcSEFL2 (Pb) (Fc fusion) SHLVKCGESEKSFCVNGGECYVIEDSSIPSRFLCKCPNEFTGDRCQNVFLASFYKAEELYQGGDKTHTCPPCPAPELLGGPSVFLFPPKPKDTLMISRTPEVTCVVVDVSHEDPEVKFNWYVDGVEVHNAKTKPCEEQYGSTYRCVSVLTVLHQDWLNGKEYKCKVSNKALPAPIEKTISKAKGQPREPQVYTLPPSREEMTKNQVSLTCLVKGFYPSDIAVEWESNGQPENNYKTTPPVLDSDGSFFLYSKLTVDKSRWQQGNVFSCSVMHEALHNHYTQKSLSLSPGK

>  <EXPERIMENTAL ENDPOINT>
Cardiomyocyte (CM) (ErbB4) Avg EC50

>  <VAL>
133

$$$$
>  <BINDER>
huNRG1(S177-Q237)(2E4)::GG::huFcSEFL2 (Pb) (Fc fusion) SHLVKCGESDKSFCVNGGECFMVKRPSNPSRYLCKCPNEFTGDRCQKVFLASFYKAEELYQGGDKTHTCPPCPAPELLGGPSVFLFPPKPKDTLMISRTPEVTCVVVDVSHEDPEVKFNWYVDGVEVHNAKTKPCEEQYGSTYRCVSVLTVLHQDWLNGKEYKCKVSNKALPAPIEKTISKAKGQPREPQVYTLPPSREEMTKNQVSLTCLVKGFYPSDIAVEWESNGQPENNYKTTPPVLDSDGSFFLYSKLTVDKSRWQQGNVFSCSVMHEALHNHYTQKSLSLSPGK

>  <EXPERIMENTAL ENDPOINT>
Cardiomyocyte (CM) (ErbB4) Avg EC50

>  <VAL>
429

$$$$
>  <BINDER>
huNRG1(S177-Q237)(v80)::GG::huFcSEFL2 (Pb) (Fc fusion) SHLVKCAESHKSFCVNGGECFVIEGSSIPSRYLCKCPNEFTGDRCQKDVMASFYKAEELYQGGDKTHTCPPCPAPELLGGPSVFLFPPKPKDTLMISRTPEVTCVVVDVSHEDPEVKFNWYVDGVEVHNAKTKPCEEQYGSTYRCVSVLTVLHQDWLNGKEYKCKVSNKALPAPIEKTISKAKGQPREPQVYTLPPSREEMTKNQVSLTCLVKGFYPSDIAVEWESNGQPENNYKTTPPVLDSDGSFFLYSKLTVDKSRWQQGNVFSCSVMHEALHNHYTQKSLSLSPGK

>  <EXPERIMENTAL ENDPOINT>
Cardiomyocyte (CM) (ErbB4) Avg EC50

>  <VAL>
998

$$$$
>  <BINDER>
huNRG1(S177-Q237)(NRGE1L)::GG::huFcSEFL2 (Pb) (Fc fusion) SHLVKCGESHKSFCVNGGECYMVEGSSIPSRYLCKCPNEFTGDRCQDDFMASFYKAEELYQGGDKTHTCPPCPAPELLGGPSVFLFPPKPKDTLMISRTPEVTCVVVDVSHEDPEVKFNWYVDGVEVHNAKTKPCEEQYGSTYRCVSVLTVLHQDWLNGKEYKCKVSNKALPAPIEKTISKAKGQPREPQVYTLPPSREEMTKNQVSLTCLVKGFYPSDIAVEWESNGQPENNYKTTPPVLDSDGSFFLYSKLTVDKSRWQQGNVFSCSVMHEALHNHYTQKSLSLSPGK

>  <EXPERIMENTAL ENDPOINT>
Cardiomyocyte (CM) (ErbB4) Avg EC50

>  <VAL>
2290

$$$$
>  <BINDER>
huNRG1(S177-Q237)(_FVIEDPSI)::GG::huFcSEFL2 (Pb) (Fc fusion) SHLVKCAEKEKTFCVNGGECFVIEDPSIPSRYLCKCPNEFTGDRCQNYVMASFYKAEELYQGGDKTHTCPPCPAPELLGGPSVFLFPPKPKDTLMISRTPEVTCVVVDVSHEDPEVKFNWYVDGVEVHNAKTKPCEEQYGSTYRCVSVLTVLHQDWLNGKEYKCKVSNKALPAPIEKTISKAKGQPREPQVYTLPPSREEMTKNQVSLTCLVKGFYPSDIAVEWESNGQPENNYKTTPPVLDSDGSFFLYSKLTVDKSRWQQGNVFSCSVMHEALHNHYTQKSLSLSPGK

>  <EXPERIMENTAL ENDPOINT>
Cardiomyocyte (CM) (ErbB4) Avg EC50

>  <VAL>
177

$$$$
>  <BINDER>
huNRG1(S177-F229)(NRGE1D)::1KmodT482V, M493L)::huFcSEFL2 (Pb) (Fc fusion) SHLVKCGESHKSFCVNGGECYMVEGSSIPSRYLCKCPNEFTGDRCQEDFMASFGSGSATGGSGSVASSGSGSATHLDKTHTCPPCPAPELLGGPSVFLFPPKPKDTLMISRTPEVTCVVVDVSHEDPEVKFNWYVDGVEVHNAKTKPCEEQYGSTYRCVSVLTVLHQDWLNGKEYKCKVSNKALPAPIEKTISKAKGQPREPQVYTLPPSREEMTKNQVSLTCLVKGFYPSDIAVEWESNGQPENNYKTTPPVLDSDGSFFLYSKLTVDKSRWQQGNVFSCSVMHEALHNHYTQKSLSLSPGK

>  <EXPERIMENTAL ENDPOINT>
Cardiomyocyte (CM) (ErbB4) Avg EC50

>  <VAL>
340

$$$$
>  <BINDER>
huNRG1(S177-F229)(NRGE1C) (D48T_F49Q_M50I) 6xHis (ligand) SHLVKCGEKHKSFCVNGGECFMIEGPSNPSRYLCKCPNEFTGDRCQETQIASFGGGGEGGGGAGGGGHHHHHH

>  <EXPERIMENTAL ENDPOINT>
Cardiomyocyte (CM) (ErbB4) Avg EC50

>  <VAL>
712

$$$$
>  <BINDER>
huNRG1(S177-F229)(NRGE1C) (E47S_D48A_F49L_M50T) 6xHis (ligand) SHLVKCGEKHKSFCVNGGECFMIEGPSNPSRYLCKCPNEFTGDRCQSALTASFGGGGEGGGGAGGGGHHHHHH

>  <EXPERIMENTAL ENDPOINT>
Cardiomyocyte (CM) (ErbB4) Avg EC50

>  <VAL>
695

$$$$
